Target: BRD4(BD1) (Homo sapiens, UniProt O60885)
Construct: His; made in house
Experiment: BRD4 Alphalisa binding assay
Settings: BRD4(BD1) 30 nM, biotinylated H4-tetraacetyl peptide 200 nM; read-out: BRD4 Alphascreen IC50
pIC50: −log10 of the molar value.
VALUE KIND: pIC50

As a guide, the following entries are already answered.
CCNC(=O)[C@@H]1C[C@]12N=C(c1ccc(Cl)cc1)c1c(sc(C)c1C)-n1c(C)nnc12 [Compound 204]    < 6.00
Cc1sc2c(c1C)C(c1ccc(Cl)cc1)=N[C@]1(C[C@H]1C(N)=O)c1nnc(C)n1-2 [Compound 205]    6.00 to 6.30
COC[C@@H]1C[C@]12N=C(c1ccc(Cl)cc1)c1c(sc(C)c1C)-n1c(C)nnc12 [Compound 202]    > 6.30

Pending molecule:
Challenge: Fill in the recorded pIC50 for this molecule, with BRD4(BD1) (Homo sapiens, UniProt O60885) as test system: Cc1sc2c(c1C)C(c1ccc(Cl)cc1)=NC1(CC1)c1nncn1-2 [Compound 217]
Response given: < 6.00
